# credit: the RNAGym collection of RNA variant scans (doi:10.7554/elife.80360)

B1: CPEB3 Ribozyme (parent)
chain: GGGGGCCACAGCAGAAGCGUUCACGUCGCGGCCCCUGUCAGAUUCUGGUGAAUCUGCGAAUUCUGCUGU

Variants of: B1
Test: self-cleavage, relative activity (ratio to wild type); higher = more cleavage; co-transcriptional
// label = MET if self-cleavage is not less than 0.3, otherwise NOT MET

hey, is self-cleavage for this one >= 0.3? G5A C24G NOT MET

hey, is self-cleavage for this one >= 0.3? G30A A59U MET

hey, is self-cleavage for this one >= 0.3? U64A C66G MET

hey, is self-cleavage for this one >= 0.3? G3A U55G NOT MET

hey, is self-cleavage for this one >= 0.3? A8G C9G MET

hey, is self-cleavage for this one >= 0.3? C12G G56C MET

hey, is self-cleavage for this one >= 0.3? C6G A42U NOT MET

hey, is self-cleavage for this one >= 0.3? G41U U49C MET

hey, is self-cleavage for this one >= 0.3? G11U C27U NOT MET

hey, is self-cleavage for this one >= 0.3? A13C A42U MET

hey, is self-cleavage for this one >= 0.3? C7A G56C NOT MET

hey, is self-cleavage for this one >= 0.3? C34G G50U MET

hey, is self-cleavage for this one >= 0.3? C34G C54U MET

hey, is self-cleavage for this one >= 0.3? U43C G47C MET

hey, is self-cleavage for this one >= 0.3? U44C A59U MET

hey, is self-cleavage for this one >= 0.3? G1A A15C NOT MET

hey, is self-cleavage for this one >= 0.3? G4U C66A MET

hey, is self-cleavage for this one >= 0.3? G14U C18A NOT MET

hey, is self-cleavage for this one >= 0.3? A13U U62A MET

hey, is self-cleavage for this one >= 0.3? C6G C39G NOT MET

hey, is self-cleavage for this one >= 0.3? U46G G58U MET

hey, is self-cleavage for this one >= 0.3? C29U A40C NOT MET

hey, is self-cleavage for this one >= 0.3? G1A C32U NOT MET

hey, is self-cleavage for this one >= 0.3? C22A G31C NOT MET

hey, is self-cleavage for this one >= 0.3? A51U U62C MET

hey, is self-cleavage for this one >= 0.3? C54A A60G MET

hey, is self-cleavage for this one >= 0.3? U44C A51U MET

hey, is self-cleavage for this one >= 0.3? G3A G19U NOT MET
